These data points were gathered from patent US12440471B2.

Assay: PK study in mouse pups by IP and IN routes (plasma, lung tissue)
Assay type: in vivo
Conditions: C57BL/6J, mouse, intraperitoneal; lung tissue, 10 mg/kg

| compound | Tmax |
| --- | --- |
| CC(=O)N[C@@H]1C(Oc2ccc([N+](=O)[O-])cc2)OC(CO)C(O)C1O (stereo partly shown) | 5 min |

----------
Assay: PK study in mouse pups by IP and IN routes (plasma, lung tissue)
Type: in vivo
Conditions: C57BL/6J, mouse; plasma, 0.22 mg/kg IP

| compound | Tmax, min |
| --- | --- |
| CC(=O)N[C@@H]1C(Oc2ccc([N+](=O)[O-])cc2)OC(CO)C(O)C1O (stereo partly shown) | 5 |

----------
Test: PK study in rat pups by SC or IV (plasma, BALF)
Assay type: in vivo
Conditions: Sprague Dawley Crl:CD, rat, in vivo, 150 mg/kg/day, Tmax (maximum plasma concentration)
measurement_type: Tmax (min)

| compound | reported_measurement |
| --- | --- |
| CC(=O)N[C@@H]1C(Oc2ccc([N+](=O)[O-])cc2)OC(CO)C(O)C1O (stereo partly shown) [AVR-48] | 30 |

----------
Experiment: Oral PK of nanomilled formulations in adult SD rats
Format: in vivo, rat
Details: rat, in vivo, po, 100 mg/kg

| compound | Cmax |
| --- | --- |
| CC(=O)N[C@@H]1C(Oc2ccc3nonc3c2)OC(CO)C(O)C1O (stereo partly shown) | 4.56 µM |

----------
Test: Safety profile of AVR-48 in mice or rat pups (IV, SC, IN; MTD/NOAEL)
Format: in vivo
Details: C57BL/6J (mouse), Sprague Dawley Crl:CD (rat), mouse, rat, in vivo, sc; read-out: no-observed-adverse-effect level (NOAEL)
measurement_type: NOAEL at 3 days (mg/kg/day)

| compound | measurement_type | reported_measurement |
| --- | --- | --- |
| CC(=O)N[C@@H]1C(Oc2ccc([N+](=O)[O-])cc2)OC(CO)C(O)C1O (stereo partly shown) | NOAEL at 3 days | 150 |

----------
Assay: PK study in rat pups by SC or IV (plasma, BALF)
Assay type: in vivo
Conditions: Sprague Dawley Crl:CD, rat, in vivo, iv, AUC(0-t)

| molecule | unit_abbreviation | AUC(0-t) |
| --- | --- | --- |
| CC(=O)N[C@@H]1C(Oc2ccc([N+](=O)[O-])cc2)OC(CO)C(O)C1O (stereo partly shown) | µg·h/mL | 4.2 |

----------
Assay: PK study in mouse pups by IP and IN routes (plasma, lung tissue)
Type: in vivo
Settings: C57BL/6J, mouse; plasma, 10 mg/kg IP
measurement_type: Tmax (min)

| compound | measurement_type | unit_abbreviation | reported_measurement |
| --- | --- | --- | --- |
| CC(=O)N[C@@H]1C(Oc2ccc([N+](=O)[O-])cc2)OC(CO)C(O)C1O (stereo partly shown) [AVR-48] | Tmax | min | 5 |

----------
Assay: Safety profile of AVR-48 in mice or rat pups (IV, SC, IN; MTD/NOAEL)
Assay type: in vivo
Details: C57BL/6J (mouse), Sprague Dawley Crl:CD (rat), mouse, rat, in vivo, iv; read-out: no-observed-adverse-effect level (NOAEL)

| compound | unit_abbreviation | NOAEL at 3 days |
| --- | --- | --- |
| CC(=O)N[C@@H]1C(Oc2ccc([N+](=O)[O-])cc2)OC(CO)C(O)C1O (stereo partly shown) [AVR-48] | mg/kg/day | 100 |

----------
Assay: Oral PK of nanomilled formulations in adult SD rats
Type: in vivo, rat
Details: male, SD (Sprague-Dawley), rat; plasma, oral formulation, 100 mg/kg, adult rats n=3; read-out: half-life (T v2) (converted)
Procedure: The test item, the stabilizer (HPC-SSL) and the surfactant (SDS) were accurately weighed and transferred in a 15-mL amber glass jar charged with 6 mL of yttrium-stabilized zirconia beads (0.8 mm). […] Animals and dosing: The male SD rats (N=3) were obtained from Charles River. […] Forty μL of the supernatant was transferred to a 96 well plate, and 80 μL of water+0.1% formic acid was added and analyzed using the in house developed HPLC method.
measurement_type: half-life

| molecule | reported_measurement |
| --- | --- |
| CC(=O)N[C@@H]1C(Oc2ccc([N+](=O)[O-])cc2)OC(CO)C(O)C1O (stereo partly shown) [AVR-48] | 36 min |

----------
Experiment: PK study in mouse pups by IP and IN routes (plasma, lung tissue)
Assay type: in vivo
Conditions: C57BL/6J, mouse; plasma, 10 mg/kg IP
measurement_type: half-life (min)

| molecule | unit_abbreviation | reported_measurement |
| --- | --- | --- |
| CC(=O)N[C@@H]1C(Oc2ccc([N+](=O)[O-])cc2)OC(CO)C(O)C1O (stereo partly shown) | min | 21.6 |

----------
Experiment: PK study in rat pups by SC or IV (plasma, BALF)
Assay type: in vivo
Details: Sprague Dawley Crl:CD, rat, in vivo, maximum concentration (Cmax)
measurement_type: Cmax

| compound | reported_measurement |
| --- | --- |
| CC(=O)N[C@@H]1C(Oc2ccc([N+](=O)[O-])cc2)OC(CO)C(O)C1O (stereo partly shown) | 891 to 1070 ng/mL |

----------
Assay: Safety profile of AVR-48 in mice or rat pups (IV, SC, IN; MTD/NOAEL)
Assay type: in vivo
Settings: C57BL/6J (mouse), Sprague Dawley Crl:CD (rat), mouse, rat, in vivo, sc; read-out: maximum tolerated dose (MTD)

| molecule | MTD at 3 days, mg/kg/day |
| --- | --- |
| CC(=O)N[C@@H]1C(Oc2ccc([N+](=O)[O-])cc2)OC(CO)C(O)C1O (stereo partly shown) | 150 |
